Data origin: the supplement of paper PMC8728848

target: Fuc(a1-2)[GalNAc(a1-3)]Gal(b1-4)GlcNAc(b1-2)Man(a1-3)[Fuc(a1-2)[GalNAc(a1-3)]Gal(b1-4)GlcNAc(b1-2)Man(a1-6)]Man(b1-4)GlcNAc(b1-4)GlcNAc; assay: glycan array binding signal (z-score within array); higher = stronger binding; settings: glycan notation: IUPAC condensed, linker removed
Only a selection was taken, and the strongest signals are over-represented in it overall.
parameterMeasured: glycan array binding signal (z-score)

1) HPA (Helix pomatia), Q2F1K8 (protein) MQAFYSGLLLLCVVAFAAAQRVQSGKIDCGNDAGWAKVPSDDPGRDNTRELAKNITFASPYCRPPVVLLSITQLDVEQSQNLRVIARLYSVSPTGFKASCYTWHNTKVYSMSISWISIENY = 3.07
2) Clec49 (Caenorhabditis elegans) (protein) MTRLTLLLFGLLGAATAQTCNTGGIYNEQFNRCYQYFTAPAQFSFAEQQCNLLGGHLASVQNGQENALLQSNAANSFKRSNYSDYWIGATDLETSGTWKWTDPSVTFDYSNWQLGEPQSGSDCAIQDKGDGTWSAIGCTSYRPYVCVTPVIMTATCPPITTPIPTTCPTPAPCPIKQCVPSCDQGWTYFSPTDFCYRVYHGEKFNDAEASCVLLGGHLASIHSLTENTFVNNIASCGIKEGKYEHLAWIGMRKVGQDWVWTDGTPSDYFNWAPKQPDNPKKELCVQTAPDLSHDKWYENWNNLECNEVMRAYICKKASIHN = 0.062
3) MXA PilAct-eGFP (Myxococcus xanthus), Q59589 (protein) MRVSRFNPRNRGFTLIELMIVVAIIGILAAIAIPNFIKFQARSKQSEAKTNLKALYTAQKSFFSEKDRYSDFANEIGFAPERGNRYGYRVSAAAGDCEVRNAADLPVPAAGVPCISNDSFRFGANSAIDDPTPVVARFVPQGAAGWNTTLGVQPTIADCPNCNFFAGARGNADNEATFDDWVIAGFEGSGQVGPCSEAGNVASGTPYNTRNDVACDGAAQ = 3.39
